# System: Carbonic anhydrase 7 (Homo sapiens, UniProt P43166)
# Sequence (P43166 whole entry): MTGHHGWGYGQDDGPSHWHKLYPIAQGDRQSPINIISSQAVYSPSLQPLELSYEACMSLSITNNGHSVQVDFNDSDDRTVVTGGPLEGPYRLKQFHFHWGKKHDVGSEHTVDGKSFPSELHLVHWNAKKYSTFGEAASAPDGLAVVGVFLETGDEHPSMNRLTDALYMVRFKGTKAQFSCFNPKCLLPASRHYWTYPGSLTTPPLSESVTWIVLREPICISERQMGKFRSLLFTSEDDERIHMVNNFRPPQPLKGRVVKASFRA
# Experiment: Binding affinity to human recombinant CA7 after 30 secs by surface plasmon resonance assay
Task for the reader: assign each of the following compounds its reported log10 of Kd.
The figures below represent log10 of Kd, where Kd is stated in nM.

Test item "NS(=O)(=O)c1cc(C(=O)Cn2c(Cc3ccccc3)nc3ccccc32)ccc1Cl" ; Carbonic anhydrase 7 (Homo sapiens, UniProt P43166); reported log10 of Kd was 2.49

Test item "NS(=O)(=O)c1cc(C(=O)Cn2cnc3ccccc32)ccc1Cl" ; Carbonic anhydrase 7 (Homo sapiens, UniProt P43166); reported log10 of Kd was 3.23

Test item "CCCS(=O)(=O)c1c(F)c(F)c(S(N)(=O)=O)c(F)c1NC1CCCCCCC1" ; Carbonic anhydrase 7 (Homo sapiens, UniProt P43166); reported log10 of Kd was 1.60

Test item "NS(=O)(=O)c1ccc(C(=O)Cn2cnc3ccccc32)cc1Cl" ; Carbonic anhydrase 7 (Homo sapiens, UniProt P43166); reported log10 of Kd was 1.23

Test item "COc1ccc(CNc2c(F)c(F)c(F)c(F)c2S(N)(=O)=O)cc1" ; Carbonic anhydrase 7 (Homo sapiens, UniProt P43166); reported log10 of Kd was 3.68

Test item "NS(=O)(=O)c1cccc(C(=O)Cn2cnc3ccccc32)c1" ; Carbonic anhydrase 7 (Homo sapiens, UniProt P43166); reported log10 of Kd was 3.18

Test item "CCCSc1c(F)c(F)c(S(N)(=O)=O)c(NC2CCCCCCC2)c1F" ; Carbonic anhydrase 7 (Homo sapiens, UniProt P43166); reported log10 of Kd was 2.71

Test item "NS(=O)(=O)c1c(F)c(F)c(N2CCCCC2)c(F)c1F" ; Carbonic anhydrase 7 (Homo sapiens, UniProt P43166); reported log10 of Kd was 1.43

Test item "CNc1c(F)c(S(N)(=O)=O)c(F)c(F)c1S(=O)(=O)CCc1ccccc1" ; Carbonic anhydrase 7 (Homo sapiens, UniProt P43166); reported log10 of Kd was 1.65
